biological target: PD-L1 (Homo sapiens (Human), UniProt Q9NZQ7); test: PD-L1 whole blood internalization assay; settings: 24 HR, PD-L1 expression on CD14+ cells, human interferon γ
Sequence (Q9NZQ7 19-290): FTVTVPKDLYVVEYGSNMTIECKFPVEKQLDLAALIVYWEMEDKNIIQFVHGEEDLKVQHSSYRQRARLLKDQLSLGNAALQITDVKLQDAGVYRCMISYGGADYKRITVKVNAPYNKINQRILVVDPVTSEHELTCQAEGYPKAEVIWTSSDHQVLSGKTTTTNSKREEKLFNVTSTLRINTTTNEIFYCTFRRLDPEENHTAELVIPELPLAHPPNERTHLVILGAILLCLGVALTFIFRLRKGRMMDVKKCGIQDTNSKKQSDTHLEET
Form field: IC50 (one value per entry).

Field request: IC50 | item: `Cc1c(NC(=O)c2nc3c(n2C)CCN(CCC24CCC(C(=O)O)(CC2)C4)C3)cccc1-c1cccc(NC(=O)c2nc3c(n2C)CCN(C2CCN(C(N)=O)CC2)C3)c1Cl`
10 to 100 nM

Ok, now `Cn1c(C(=O)Nc2cccc(-c3cccc(NC(=O)c4nc5c(n4C)CCN(CC46CCC(C(=O)O)(CC4)CC6)C5)c3Cl)c2Cl)nc2c1CCN(CCC13CCC(C(=O)O)(CC1)C3)C2`
100 to 500 nM

Same question, `Cc1c(NC(=O)c2nc3c(n2C)CCN(CCO)C3)cccc1-c1cccc(NC(=O)c2nc3c(n2C)CCN(CCC24CCC(C(=O)O)(CC2)C4)C3)c1Cl` this time
10 to 100 nM

Same question, `Cn1c(C(=O)Nc2cccc(-c3cccc(NC(=O)c4nc5c(n4C)CCN(CC(=O)O)C5)c3Cl)c2Cl)nc2c1CCN(CCC13CCC(C(=O)O)(CC1)C3)C2` this time
10 to 100 nM

These data points were gathered from patent US10618916B2.
